// provenance: patent US20120083522A1

tested on: human Factor XI mRNA; assay: Dose-dependent inhibition in HepG2 cells, electroporation (Example 4); assay type: cell-based; settings: 0.7 μM, 16 hours
In the oligonucleotide strings, read from the 5' end, every base follows the letter of its sugar. An asterisk marks phosphorothioate; unmarked linkages are phosphodiester. Other units and linkages are bracketed, terminal groups are in braces. A string of capitals states the bases alone. e = 2'-O-(2-methoxyethyl) (MOE); [5mC] = 5-methylcytosine; d = 2'-deoxy (DNA)
Answer each item with its documented percent inhibition of Factor XI mRNA, relative to untreated control cells.
Answers are plain numbers, in %.

Worked examples follow.
>>> measurednumber("413476 (antisense eT*eT*eG*eA*eG*dA*dT*dT*d[5mC]*dT*dT*dT*dG*dG*dG*e[5mC]*e[5mC]*eA*eT*eT) [compound 413476]")
40
>>> measurednumber("416923 (antisense eT*eG*e[5mC]*dA*d[5mC]*dA*dG*dT*dT*dT*d[5mC]*dT*dG*dG*d[5mC]*dA*dG*eG*e[5mC]*e[5mC]) [compound 416923]")
15
>>> measurednumber("416926 (antisense eT*eG*eG*dT*dG*d[5mC]*dA*d[5mC]*dA*dG*dT*dT*dT*d[5mC]*dT*dG*dG*e[5mC]*eA*eG) [compound 416926]")
47
>>> measurednumber("416925 (antisense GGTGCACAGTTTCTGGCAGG; 3-14-3 chimeric gapmer, wing sugar chemistry not given here, further chemistry not given here) [compound 416925]")
0
>>> measurednumber("416984 (antisense e[5mC]*eA*dA*d[5mC]*d[5mC]*dG*dG*dG*dA*dT*dG*dA*dT*dG*dA*eG*eT*eG*e[5mC]*eA) [compound 416984]")
43
>>> measurednumber("416858 (antisense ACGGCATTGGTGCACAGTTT; 5-10-5 gapmer, wing sugar chemistry not given here, further chemistry not given here) [compound 416858]")
5

Please look at the items below and tell me percent inhibition of Factor XI mRNA, relative to untreated control cells for each one, in order.
1. 416922 (antisense eG*e[5mC]*eA*d[5mC]*dA*dG*dT*dT*dT*d[5mC]*dT*dG*dG*d[5mC]*dA*dG*dG*e[5mC]*e[5mC]*eT) [compound 416922]
2. 416924 (antisense eG*eT*eG*d[5mC]*dA*d[5mC]*dA*dG*dT*dT*dT*d[5mC]*dT*dG*dG*d[5mC]*dA*eG*eG*e[5mC]) [compound 416924]
3. 413474 (antisense eA*eG*e[5mC]*eA*eA*d[5mC]*d[5mC]*dG*dG*dG*dA*dT*dG*dA*dT*eG*eA*eG*eT*eG) [compound 413474]

[A]
35
22
0

Hi team, please reply with percent inhibition of Factor XI mRNA, relative to untreated control cells for each item in this list.
1. 416895 (antisense eT*eA*eT*dG*d[5mC]*d[5mC]*d[5mC]*dT*dT*d[5mC]*dA*dT*dG*dT*d[5mC]*dT*dA*eG*eG*eT) [compound 416895]
2. 412203 (antisense eA*eA*eT*eG*eT*d[5mC]*dT*dT*dT*dG*dT*dT*dG*d[5mC]*dA*eA*eG*e[5mC]*eG*e[5mC]) [compound 412203]

[A]
1. 0
2. 11
